# Test system: Setaria faberi (SETFA)
# METHOD DESCRIPTION: Post-emergence herbicidal glasshouse test
# Type: in vivo
# RUN CONDITIONS: 250 g/ha, evaluated after 13 days, five-point scale
MEASURE: percentage damage caused to the plant, SETFA

- FC(F)(F)c1cn(Cc2ncc(Cl)cn2)c(-n2cc(Cl)cn2)n1: 2 (2=21-40%)
- Cc1ccc(-c2nc(C(F)F)cn2Cc2ncc(Cl)cn2)s1: 1 (1=0-20%)
- FC(F)(F)c1cn(Cc2ncc(Cl)cn2)c(-c2cc(Cl)sc2Cl)n1: 3 (3=41-60%)

====

# System: AMAPA
# METHOD DESCRIPTION: Post-emergence herbicidal glasshouse test
# Format: in vivo
# RUN CONDITIONS: 250 g/ha, evaluated after 13 days, five-point scale
# Procedure: [Worded in the source for another organism; this organism is reported under the same test.] Seeds of a variety of test species are sown in standard soil in pots Amaranthus retoflexus (AMARE), Echinochloa crus-galli (ECHCG), Setaria faberi (SETFA)). […] After 13 days for pre and post-emergence, the test is evaluated for the percentage damage caused to the plant. […]
Each record here notes measured percentage damage caused to the plant, AMAPA.
MEASURE: percentage damage caused to the plant, AMAPA

* FC(F)(F)c1cn(Cc2ncc(Cl)cn2)c(-c2sccc2Br)n1 | 2 (2=21-40%)
* N#Cc1ccc(Cn2cc(C(F)(F)F)nc2-c2ccc(Cl)s2)nc1 | 5 (5=81-100%)
* FC(F)Oc1cccc(Cn2cc(C(F)(F)F)nc2-c2ccc(Cl)s2)n1 | 1 (1=0-20%)
* Cn1nccc1-c1nc(C(F)(F)F)cn1Cc1ncc(Cl)cn1 | 5 (5=81-100%)
* FC(F)(F)c1cn(Cc2ncc(Cl)cn2)c(-c2sccc2Cl)n1 | 1 (1=0-20%)
* N#Cc1ccc(-c2nc(C(F)(F)F)cn2Cc2ncc(Cl)cn2)s1 | 5 (5=81-100%)
* FC(F)n1cc(-c2nc(C(F)(F)F)cn2Cc2ncc(Cl)cn2)cn1 | 5 (5=81-100%)
* FC(F)(F)c1cn(Cc2ncc(Cl)cn2)c(-c2ccsc2Cl)n1 | 3 (3=41-60%)
* FC(F)(F)c1cn(Cc2ncc(Cl)cn2)c(-c2cnc(Cl)s2)n1 | 5 (5=81-100%)
* FC(F)(F)c1cn(Cc2ncc(Cl)cn2)c(-c2ccc(Cl)s2)n1 | 5 (5=81-100%)
* FC(F)(F)c1cn(Cc2ccc(Cl)cn2)c(-c2ccc(Cl)s2)n1 | 5 (5=81-100%)
* Fc1cc(Cl)cnc1Cn1cc(C(F)(F)F)nc1-c1ccc(Cl)s1 | 5 (5=81-100%)
* FC(F)(F)c1cn(Cc2ncc(Cl)cn2)c(-c2cccs2)n1 | 4 (4=61-80%)
* FC(F)(F)c1cn(Cc2ncc(Cl)cn2)c(-c2cc(Cl)sc2Cl)n1 | 3 (3=41-60%)
* CS(=O)(=O)c1ccc(-c2nc(C(F)(F)F)cn2Cc2ncc(Cl)cn2)s1 | 4 (4=61-80%)
* Cc1sccc1-c1nc(C(F)(F)F)cn1Cc1ncc(Cl)cn1 | 4 (4=61-80%)
* FC(F)(F)c1cn(Cc2ncc(Cl)cn2)c(-c2nccs2)n1 | 1 (1=0-20%)
* Fc1ccc(Cn2cc(C(F)(F)F)nc2-c2ccc(Cl)s2)nc1 | 4 (4=61-80%)
* Cn1cc(-c2nc(C(F)(F)F)cn2Cc2ncc(Cl)cn2)cn1 | 3 (3=41-60%)
* Cc1nnsc1-c1nc(C(F)(F)F)cn1Cc1ncc(Cl)cn1 | 4 (4=61-80%)
* FC(F)(F)c1cn(Cc2ncc(Cl)cn2)c(-c2csc(Cl)n2)n1 | 2 (2=21-40%)
* Cc1ccc(-c2nc(C(F)(F)F)cn2Cc2ncc(Cl)cn2)s1 | 4 (4=61-80%)
* Cc1cnc(Cn2cc(C(F)(F)F)nc2-c2ccc(Cl)s2)nc1 | 5 (5=81-100%)
* FC(F)(F)c1cn(Cc2ncc(Cl)cn2)c(-c2ccc(Br)s2)n1 | 5 (5=81-100%)
* FC(F)(F)c1cn(Cc2ncc(Cl)cn2)c(-c2cc(Cl)cs2)n1 | 4 (4=61-80%)
* Cc1c(-c2nc(C(F)(F)F)cn2Cc2ncc(Cl)cn2)cnn1C | 3 (3=41-60%)
* Cn1cc(Cl)c(-c2nc(C(F)(F)F)cn2Cc2ncc(Cl)cn2)n1 | 1 (1=0-20%)
* Cc1ncsc1-c1nc(C(F)(F)F)cn1Cc1ncc(Cl)cn1 | 5 (5=81-100%)
* FC(F)(F)c1cn(Cc2ncc(Cl)cn2)c(-c2cscn2)n1 | 1 (1=0-20%)
* Cc1cc(-c2nc(C(F)(F)F)cn2Cc2ncc(Cl)cn2)n(C)n1 | 5 (5=81-100%)
* FC(F)(F)c1cn(Cc2ncc(Cl)cn2)c(-c2ccsc2)n1 | 5 (5=81-100%)
* FC(F)c1cn(Cc2ncc(Cl)cn2)c(-c2cnc(Cl)s2)n1 | 4 (4=61-80%)
* Fc1cnn(-c2nc(C(F)(F)F)cn2Cc2ncc(Cl)cn2)c1 | 3 (3=41-60%)
* FC(F)(F)c1cn(Cc2ncc(Cl)cn2)c(-c2ccco2)n1 | 1 (1=0-20%)
* Cn1ccc(-c2nc(C(F)(F)F)cn2Cc2ncc(Cl)cn2)n1 | 1 (1=0-20%)
* Cc1ccc(-c2nc(C(F)F)cn2Cc2ncc(Cl)cn2)s1 | 2 (2=21-40%)

====

Each record here notes measured percentage damage caused to the plant, SETFA.
# Tested on: Setaria faberi (SETFA)
# METHOD DESCRIPTION: Post-emergence herbicidal glasshouse test
# Assay type: in vivo
# RUN CONDITIONS: 250 g/ha, evaluated after 13 days, five-point scale
# Method: Seeds of a variety of test species are sown in standard soil in pots Amaranthus retoflexus (AMARE), Echinochloa crus-galli (ECHCG), Setaria faberi (SETFA)). […] After 13 days for pre and post-emergence, the test is evaluated for the percentage damage caused to the plant. […]
MEASURE: percentage damage caused to the plant, SETFA

• FC(F)(F)c1cn(Cc2ncc(Cl)cn2)c(-c2cc(Cl)c(Cl)s2)n1 [Compound 1.070] = 5 (5=81-100%)
• FC(F)(F)c1cn(Cc2ncc(Cl)cn2)c(-c2ccsc2Cl)n1 [Compound 1.025] = 4 (4=61-80%)
• Cn1cc(-c2nc(C(F)(F)F)cn2Cc2ncc(Cl)cn2)cn1 [Compound 1.014] = 2 (2=21-40%)
• Cn1nccc1-c1nc(C(F)(F)F)cn1Cc1ncc(Cl)cn1 [Compound 1.005] = 5 (5=81-100%)
• FC(F)(F)c1cn(Cc2ncc(Cl)cn2)c(-c2ccsc2)n1 [Compound 1.030] = 5 (5=81-100%)
• Cn1ccnc1-c1nc(C(F)(F)F)cn1Cc1ncc(Cl)cn1 [Compound 1.006] = 1 (1=0-20%)
• Cc1csc(-c2nc(C(F)(F)F)cn2Cc2ncc(Cl)cn2)c1 [Compound 1.029] = 4 (4=61-80%)
• Cc1cc(-c2nc(C(F)(F)F)cn2Cc2ncc(Cl)cn2)n(C)n1 [Compound 1.024] = 5 (5=81-100%)
• Cc1c(-c2nc(C(F)(F)F)cn2Cc2ncc(Cl)cn2)cnn1C [Compound 1.012] = 1 (1=0-20%)
• Fc1cnn(-c2nc(C(F)(F)F)cn2Cc2ncc(Cl)cn2)c1 [Compound 1.067] = 1 (1=0-20%)
• Cc1sccc1-c1nc(C(F)(F)F)cn1Cc1ncc(Cl)cn1 [Compound 1.035] = 5 (5=81-100%)
• FC(F)(F)c1cn(Cc2ncc(Cl)cn2)c(-c2ccc(Cl)s2)n1 [Compound 1.001] = 5 (5=81-100%)
• FC(F)(F)c1cn(Cc2ncc(Cl)cn2)c(-c2cccs2)n1 [Compound 1.034] = 2 (2=21-40%)
• FC(F)(F)c1cn(Cc2ncc(Cl)cn2)c(-c2cnc(Cl)s2)n1 [Compound 1.008] = 5 (5=81-100%)
• FC(F)(F)c1cn(Cc2ncc(Cl)cn2)c(-n2ccc(Cl)n2)n1 [Compound 1.066] = 1 (1=0-20%)
• FC(F)(F)c1cn(Cc2ncc(Cl)cn2)c(-c2ccns2)n1 [Compound 1.033] = 5 (5=81-100%)
• FC(F)(F)c1cn(Cc2ncc(Cl)cn2)c(-c2ccc(Br)s2)n1 [Compound 1.069] = 5 (5=81-100%)
• FC(F)(F)c1cn(Cc2ncc(Cl)cn2)c(-c2ccco2)n1 [Compound 1.016] = 1 (1=0-20%)

====

# Test system: AMAPA
# METHOD DESCRIPTION: Post-emergence herbicidal glasshouse test
# Assay type: in vivo
# RUN CONDITIONS: 250 g/ha, evaluated after 13 days, five-point scale
MEASURE: percentage damage caused to the plant, AMAPA

* Fc1ccc(-c2nc(C(F)(F)F)cn2Cc2ncc(Cl)cn2)s1 | 4 (4=61-80%)
* Cc1nc(-c2nc(C(F)(F)F)cn2Cc2ncc(Cl)cn2)co1 | 1 (1=0-20%)
* FC(F)(F)c1cn(Cc2ncc(Cl)cn2)c(-c2cnco2)n1 | 2 (2=21-40%)
* FC(F)(F)c1cn(Cc2ncc(Cl)cn2)c(-c2ncco2)n1 | 1 (1=0-20%)
* Cc1csc(-c2nc(C(F)(F)F)cn2Cc2ncc(Cl)cn2)c1 | 5 (5=81-100%)
* FC(F)(F)c1cn(Cc2ncc(Cl)cn2)c(-c2cc(Cl)c(Cl)s2)n1 | 5 (5=81-100%)
* FC(F)(F)c1cn(Cc2ncc(Cl)cn2)c(-c2csc(Cl)c2)n1 | 5 (5=81-100%)
* FC(F)(F)c1cn(Cc2ncc(Cl)cn2)c(-n2ccc(Cl)n2)n1 | 3 (3=41-60%)
* FC(F)c1cn(Cc2ncc(Cl)cn2)c(-c2ccc(Cl)s2)n1 | 5 (5=81-100%)
* FC(F)(F)c1cn(Cc2ncc(Cl)cn2)c(-c2scnc2Cl)n1 | 4 (4=61-80%)
* FC(F)(F)c1cn(Cc2ncc(Cl)cn2)c(-n2cc(Cl)cn2)n1 | 4 (4=61-80%)
* FC(F)(F)c1cn(Cc2ncc(Cl)cn2)c(-c2sc(Cl)nc2Cl)n1 | 2 (2=21-40%)
* FC(F)(F)c1cn(Cc2ncc(Cl)cn2)c(-c2ccns2)n1 | 5 (5=81-100%)
* FC(F)(F)c1cn(Cc2ncc(Cl)cn2)c(-c2cnn(C3CC3)c2)n1 | 4 (4=61-80%)
* Cn1ccnc1-c1nc(C(F)(F)F)cn1Cc1ncc(Cl)cn1 | 1 (1=0-20%)

Cited source: patent US20250243189A1
